- method_notes: Brain pharmacokinetics and brain/plasma ratio in male CD-1 mice (1 mg/kg i.v.)
- Type: in vivo
- test_parameters: male, CD-1, mouse, brain/plasma, iv, 1 mg/kg, 1 mg/kg bolus i.v., 2 h, individual animals 1-3; read-out: Brain/plasma concentration ratio
reported_metric: Kp at 2 h

- CCn1c(=O)c2c(nc(/C=C/c3ccc(OC)c(OC)c3)n2C)n(CC)c1=O [Istradefylline, reference compound]: 0.71
- CCn1c(=O)c2c(nc(/C=C/c3ccc(OC(F)F)c(OC(F)F)c3)n2C)n(CC)c1=O: 0.572

---

- method_notes: Brain pharmacokinetics and brain/plasma ratio in male CD-1 mice (1 mg/kg i.v.)
- Format: in vivo
- test_parameters: male, CD-1, mouse, iv; brain, i.v. 1 mg/kg; read-out: MRT0-inf
reported_metric: MRT inf (h)

• CCn1c(=O)c2c(nc(/C=C/c3ccc(OC)c(OC)c3)n2C)n(CC)c1=O [Istradefylline, reference compound] = 2.96

P: CCn1c(=S)c2c(nc(/C=C/c3ccc(OC)c(OC)c3)n2C)n(CC)c1=O
Q: CCn1c(=O)c2c(nc(/C=C/c3ccc(OC(F)F)c(OC(F)F)c3)n2C)n(CC)c1=O
Two entries are listed, P and Q . Which one carries the higher MRT inf? Returns: label corresponding to the selected item.
Q

---

- method_notes: Plasma pharmacokinetics in male CD-1 mice (1 mg/kg i.v. or 3 mg/kg p.o.)
- test_parameters: CD-1, mouse, in vivo, iv, 1 mg/kg
reported_metric: Cmax (ng/mL)

- CCn1c(=O)c2c(nc(/C=C/c3ccc(OC)c(OC)c3)n2C)n(CC)c1=O [Istradefylline, reference compound]: 745

P: CCn1c(=O)c2c(nc(/C=C/c3ccc(OC(F)F)c(OC(F)F)c3)n2C)n(CC)c1=O
Q: CCn1c(=S)c2c(nc(/C=C/c3ccc(OC)c(OC)c3)n2C)n(CC)c1=O
// pick min by Cmax: P , Q Reply briefly: the label of your chosen item.
Q
(Q: 360 ng/mL, P: 990 ng/mL)

---

- method_notes: Brain pharmacokinetics and brain/plasma ratio in male CD-1 mice (1 mg/kg i.v.)
- Type: in vivo
- test_parameters: male, CD-1, mouse, iv; brain, i.v. 1 mg/kg
reported_metric: Cmax (ng/g)

• CCn1c(=O)c2c(nc(/C=C/c3ccc(OC)c(OC)c3)n2C)n(CC)c1=O [Istradefylline, reference compound] = 553

A: CCn1c(=O)c2c(nc(/C=C/c3ccc(OC(F)F)c(OC(F)F)c3)n2C)n(CC)c1=O
B: CCn1c(=S)c2c(nc(/C=C/c3ccc(OC)c(OC)c3)n2C)n(CC)c1=O
Please choose the item with the lower Cmax value from this pair: A and B Field: selected label. Fill in the label of the entry you choose.
B

---

- method_notes: Brain pharmacokinetics and brain/plasma ratio in male CD-1 mice (1 mg/kg i.v.)
- Assay type: in vivo
- test_parameters: male, CD-1, mouse, brain/plasma, iv, 1 mg/kg, 1 mg/kg bolus i.v., 4 h, individual animals 1-3; read-out: Brain/plasma concentration ratio
reported_metric: Kp at 4 h

* CCn1c(=O)c2c(nc(/C=C/c3ccc(OC(F)F)c(OC(F)F)c3)n2C)n(CC)c1=O | 0.8
* CCn1c(=O)c2c(nc(/C=C/c3ccc(OC)c(OC)c3)n2C)n(CC)c1=O [Istradefylline, reference compound] | 0.87
